Attribute: MIC
# Tested on: S. pneumoniae D39
# protocol-summary: In vitro antimicrobial activity, MIC by broth micro-dilution
# Type: cell-based
# condition-notes: Streptococcus pneumoniae, D39; read-out: MIC class, S. pneumoniae D39

>>> reported("CCCCCCCCCCCCC(=O)N(C)[C@H](CO)C(=O)N[C@H](C)C(=O)NCC(=O)N(C)[C@@H]1C(=O)N[C@@H](C)C(=O)N[C@H](C(=O)O)Cc2ccc(O)c(c2)-c2cc1ccc2O")
"16 to 64 µg/mL"
>>> reported("CCCCCCCCCCCCCCCC(=O)N(C)C(CO)C(=O)N[C@H](C)C(=O)NCC(=O)N(C)[C@@H]1C(=O)N[C@@H](C)C(=O)NC(C(=O)NCC(O)C(N)=O)Cc2ccc(O)c(c2)-c2cc1ccc2O (stereo partly shown)")
"16 to 64 µg/mL"
>>> reported("CCCCCCCCCCCCCCCC(=O)N(C)[C@H](CO)C(=O)N[C@H](C)C(=O)NCC(=O)N(C)[C@@H]1C(=O)N[C@@H](C)C(=O)N[C@H](C(=O)OC[C@H](C)N)Cc2ccc(O)c(c2)-c2cc1ccc2O")
"16 to 64 µg/mL"

Alright, here's another compound for you.
I am curious: what MIC value has been reported for "CCCCCCCCCCCCCCCC(=O)N(C)[C@H](CO)C(=O)N[C@H](C)C(=O)NCC(=O)N(C)[C@@H]1C(=O)N[C@@H](C)C(=O)N[C@H](C(=O)NCC(=O)NS(C)(=O)=O)Cc2ccc(O)c(c2)-c2cc1ccc2O" ?
< 8 µg/mL

---

# assay-target: E. coli SPase (Escherichia coli, UniProt P00803)
# Construct: Full length His-tagged E. coli SPase proteins were expressed in E. coli BL21(DE3); His-tag; made in house; host or cells: E. coli BL21(DE3)
# protocol-summary: Steady state binding constant (Kd) determination by fluorescence increase
measured-attribute: Kd

I am curious: what Kd value has been reported for "CCCCCCCCCCCCCCCC(=O)N(C)[C@H](CO)C(=O)N[C@H](C)C(=O)NCC(=O)N(C)[C@@H]1C(=O)N[C@@H](C)C(=O)N[C@H](C(N)=O)Cc2ccc(O)c(c2)-c2cc1ccc2O" ?
100 nM

I am curious: what Kd value has been reported for "CCCCCCCCCCCCCCCC(=O)N(C)[C@H](CO)C(=O)N[C@H](C)C(=O)NCC(=O)N(C)[C@@H]1C(=O)N[C@@H](C)C(=O)N[C@H](C(=O)O)Cc2ccc(O)c(c2)-c2cc1ccc2O" ?
75 nM

I am curious: what Kd value has been reported for "CCCCCCCCCCCCCCCC(=O)N(C)[C@H](CO)C(=O)N[C@H](C)C(=O)NCC(=O)N(C)[C@@H]1C(=O)N[C@@H](C)C(=O)N[C@H](C(=O)NC)Cc2ccc(O)c(c2)-c2cc1ccc2O" ?
240 nM

I am curious: what Kd value has been reported for "CCCCCCCCCCCCCCCC(=O)N(C)[C@H](CO)C(=O)N[C@H](C)C(=O)NCC(=O)N(C)[C@@H]1C(=O)N[C@@H](C)C(=O)N[C@H](C(=O)NCC(=O)O)Cc2ccc(O)c(c2)-c2cc1ccc2O" ?
1100 nM

---

Attribute: MIC
# Tested on: S. pneumoniae D39
# protocol-summary: In vitro antimicrobial activity, MIC by broth micro-dilution
# Format: cell-based
# condition-notes: Streptococcus pneumoniae, D39; read-out: MIC class, S. pneumoniae D39

>>> reported("CCCCCCCCCCCCCCCC(=O)N(C)[C@H](CO)C(=O)N[C@H](C)C(=O)NCC(=O)N(C)[C@@H]1C(=O)N[C@@H](C)C(=O)N[C@H](C(=O)NC[C@H](C)O)Cc2ccc(O)c(c2)-c2cc1ccc2O")
"< 8 µg/mL"

Alright, here's another compound for you.
Reported MIC for S. pneumoniae D39, given "CCCCCCCCCCCCCCCC(=O)N(C)[C@H](CO)C(=O)N[C@H](Cc1ccccc1)C(=O)NCC(=O)N(C)[C@@H]1C(=O)N[C@@H](C)C(=O)N[C@H](C(=O)O)Cc2ccc(O)c(c2)-c2cc1ccc2O" ?
16 to 64 µg/mL
